System: CTL clone 5
assayInfo: GM-CSF release by CTL clone 5 on peptide-pulsed EBV B cells
Assay type: cell-based, human
conditionDetails: 586EBV cells, peptide 0.1 μg/ml for 90 min, 5 × 10^4 CTL clone 5
Entries and their measured GM-CSF release by CTL clone 5, EXPT. 2 (586EBV) follow.

// below: answered sequences
[[record]]
seqtext = "ASGPGGGAPRG (listed as Homo sapiens)"
measurement = "<50 (SEQ. ID NO: 32)"

[[record]]
seqtext = "ARASGPGGGAPR (listed as Homo sapiens)"
measurement = "738 (SEQ. ID NO: 29)"


Pending sequence:
Quick check: GM-CSF release by CTL clone 5, EXPT. 2 (586EBV) on CTL clone 5, item SGPGGGAPR (listed as Homo sapiens) [ESO9-54] ?
<50 (SEQ. ID NO: 14)

###

Entries and their measured GM-CSF release by CTL clone 5, EXPT. 2 (586EBV) follow.
System: CTL clone 5
assayInfo: GM-CSF release by CTL clone 5 on peptide-pulsed EBV B cells
Assay type: cell-based, human
conditionDetails: 586EBV cells, peptide 0.1 μg/ml for 90 min, 5 × 10^4 CTL clone 5

// below: answered sequences
[[record]]
seqtext = "AARASGPGGGAPR (listed as Homo sapiens)"
targetundertest = "CTL clone 5"
measurement = "738 (SEQ. ID NO: 28)"

[[record]]
seqtext = "VSGPGGGAPR (listed as Homo sapiens)"
targetundertest = "CTL clone 5"
measurement = "666 (SEQ. ID NO: 42)"

[[record]]
seqtext = "ASGPGGGAPR (listed as Homo sapiens) [ESO10-53]"
targetundertest = "CTL clone 5"
measurement = "1044 (SEQ. ID NO: 25)"

[[record]]
seqtext = "GPGGGAPR (listed as Homo sapiens)"
targetundertest = "CTL clone 5"
measurement = "<50 (SEQ. ID NO: 31)"

[[record]]
seqtext = "AIGPGGGAPR (listed as Homo sapiens)"
targetundertest = "CTL clone 5"
measurement = "550 (SEQ. ID NO: 35)"


Pending sequence:
Quick check: GM-CSF release by CTL clone 5, EXPT. 2 (586EBV) on CTL clone 5, item AVGPGGGAPR (listed as Homo sapiens) ?
512 (SEQ. ID NO: 37)

###

Tested on: CTL clone 5
assayInfo: GM-CSF release by CTL clone 5 on peptide-pulsed EBV B cells
Type: cell-based, human
conditionDetails: 586EBV cells, peptide 0.1 μg/ml for 90 min, 5 × 10^4 CTL clone 5
Entries and their measured GM-CSF release by CTL clone 5, EXPT. 2 (586EBV) follow.

[[record]]
seqtext = "SGPGGGAPRG (listed as Homo sapiens)"
measurement = "<50 (SEQ. ID NO: 33)"

[[record]]
seqtext = "LSGPGGGAPR (listed as Homo sapiens)"
measurement = "<50 (SEQ. ID NO: 43)"

[[record]]
seqtext = "RASGPGGGAPR (listed as Homo sapiens)"
measurement = "708 (SEQ. ID NO: 30)"

[[record]]
seqtext = "AGAARASGPGGGAPR (listed as Homo sapiens)"
measurement = "532 (SEQ. ID NO: 26)"

[[record]]
seqtext = "GAARASGPGGGAPR (listed as Homo sapiens)"
measurement = "678 (SEQ. ID NO: 27)"


Name the reported GM-CSF release by CTL clone 5, EXPT. 2 (586EBV) value associated with the sequence RSGPGGGAPR (listed as Homo sapiens)
<50 (SEQ. ID NO: 44)

Name the reported GM-CSF release by CTL clone 5, EXPT. 2 (586EBV) value associated with the sequence ALGPGGGAPR (listed as Homo sapiens)
378 (SEQ. ID NO: 36)

Name the reported GM-CSF release by CTL clone 5, EXPT. 2 (586EBV) value associated with the sequence ATGPGGGAPR (listed as Homo sapiens)
1158 (SEQ. ID NO: 38)

Name the reported GM-CSF release by CTL clone 5, EXPT. 2 (586EBV) value associated with the sequence AAGPGGGAPR (listed as Homo sapiens)
676 (SEQ. ID NO: 34)

Name the reported GM-CSF release by CTL clone 5, EXPT. 2 (586EBV) value associated with the sequence ASGPGGGAPH (listed as Homo sapiens)
<50 (SEQ. ID NO: 40)

Name the reported GM-CSF release by CTL clone 5, EXPT. 2 (586EBV) value associated with the sequence TSGPGGGAPR (listed as Homo sapiens)
346 (SEQ. ID NO: 41)

Name the reported GM-CSF release by CTL clone 5, EXPT. 2 (586EBV) value associated with the sequence ASGPGGGAPK (listed as Homo sapiens)
<50 (SEQ. ID NO: 39)
